The reported numbers originate from PubChem BioAssay.

Some compounds, each annotated with its measured NADPH fluorescence slope.
Molecular target: Voltage-gated potassium channel subunit beta-2 (Rattus norvegicus)
Experiment: enhancers of rat Kvbeta2 NADPH turnover – biochemical, NADPH fluorescence, primary screen (AID 623);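 further: fluorescence intensity change per second fitted from 20 to 320 s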
Conditions: Recombinant KvBeta, NADPH fluorescence decrease slope, 10 min; at 10 µM; hits give low values
quantity_measured: NADPH fluorescence slope

> print(dat)
                                   compound         quantity.measured  endpoint.value
1  CC1(C)S[C@@H]2[C@H](NC(=O)Cc3ccccc3)C(=O)N2[C@H]1C(=O)O  NADPH fluorescence slope        -5.4e-05
2              COc1ccccc1-n1nnnc1SCc1ccccc1  NADPH fluorescence slope        -2.7e-05
3  Cc1cccc(C)c1OCC(=O)Nc1cccc(NC(=O)c2ccco2)c1  NADPH fluorescence slope         5.1e-06
4  CCC(C)C(NC(=O)C1CCC(C)CC1)C(=O)NCc1cccnc1 (stereo unspecified)  NADPH fluorescence slope        -5.6e-05
5                 Cc1nnc(NC2CCCCC2)[nH]c1=O  NADPH fluorescence slope        -3.6e-05
6          COc1ccccc1C(=O)NCCc1nc2ccccc2n1C  NADPH fluorescence slope        -2.3e-05

* * *

Some molecules, each annotated with its measured fluorescence slope.
Target: Muscarinic acetylcholine receptor M4 (Homo sapiens) (UniProt P08173)
Sequence (P08173 whole entry, looked up): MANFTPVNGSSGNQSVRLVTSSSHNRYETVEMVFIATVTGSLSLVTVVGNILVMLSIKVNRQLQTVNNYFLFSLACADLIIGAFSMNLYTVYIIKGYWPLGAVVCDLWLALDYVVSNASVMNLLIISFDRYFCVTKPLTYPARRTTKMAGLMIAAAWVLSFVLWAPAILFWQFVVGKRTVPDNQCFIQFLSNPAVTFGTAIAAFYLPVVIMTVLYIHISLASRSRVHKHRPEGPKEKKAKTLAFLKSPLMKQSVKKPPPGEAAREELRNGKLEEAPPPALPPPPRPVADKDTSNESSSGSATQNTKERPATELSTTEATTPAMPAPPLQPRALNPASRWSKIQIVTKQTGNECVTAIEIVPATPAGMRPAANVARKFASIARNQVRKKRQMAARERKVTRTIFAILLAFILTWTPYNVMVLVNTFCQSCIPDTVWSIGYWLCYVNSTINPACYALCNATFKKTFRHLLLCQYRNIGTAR
Experiment: M4-linked GIRK flux change, two-sided – cell-based, HEK293 M4/GIRK, thallium flux, BTC-AM, M4 allosteric agonist project, primary screen (AID 625);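 further: thallium influx through GIRK channels coupled to M4 in HEK293 cells with BTC-AM dye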
Details: at 10 µM, actives lie on both sides
quantity_measured: fluorescence slope

> print(dat)
                                   molecule                             tested.target   quantity.measured  endpoint.value
1  CC1=C(C(N)=O)C(c2ccc(Cl)cc2Cl)n2ncnc2N1 (stereo not drawn)  Muscarinic acetylcholine receptor M4 (Homo sapiens) (UniProt P08173)  fluorescence slope         0.00707
2                Brc1ccc(-c2cn3cccnc3n2)cc1  Muscarinic acetylcholine receptor M4 (Homo sapiens) (UniProt P08173)  fluorescence slope         0.00424
3  O=C(c1ccc(NS(=O)(=O)c2cccs2)cc1)N1CCCCC1  Muscarinic acetylcholine receptor M4 (Homo sapiens) (UniProt P08173)  fluorescence slope         0.00524

* * *

Some compounds, each annotated with its measured inhibition of aggregation.
Assay: reduction of polyQ htt aggregates in cells – imaging, exon1htt(103Q)mCFP cells, high-content imaging, primary screen (AID 483);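 further: compound exposure lasted 3 days before fixation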
Conditions: exon1htt(103Q)mCFP cell line, aggregate imaging, at 2 µM; hits give high values
quantity_measured: inhibition of aggregation (%)

> print(dat)
                                    compound          quantity.measured  endpoint.value
 1    Cc1cc(NCCCn2ccnc2)n2c(nc3ccccc32)c1C#N  inhibition of aggregation            17.7
 2                   CN1CC[n+]2cnc3ccccc3c21  inhibition of aggregation           -17.8
 3  CCc1nc(N[C@@H](Cc2c[nH]c3ccccc23)C(=O)O)c2oc3ccccc3c2n1  inhibition of aggregation           -19.4
 4  COc1ccc(CCNS(=O)(=O)c2ccc3c(c2)CCN3C(=O)CCC(=O)O)cc1OC  inhibition of aggregation             0.9
 5             CCSc1nnc(NC(=O)c2cc(C)oc2C)s1  inhibition of aggregation             5.7
 6  Cc1cc(NC(=O)COC(=O)c2cccc(S(=O)(=O)N3CCOCC3)c2)no1  inhibition of aggregation            10.5
 7  COC(=O)Cn1c(C)nc2c(sc3nc(C)cc(C)c32)c1=O  inhibition of aggregation            14.7
 8   Cc1ccc(N2CCN(C(=O)c3ccccc3Br)CC2)c(C)c1  inhibition of aggregation               0
 9  OCc1nc2ccccc2n1CC(O)Cn1ccc2ccccc21 (stereo unspecified)  inhibition of aggregation            -7.1
10    Cc1cccc(N(C)C(=O)c2coc(=O)c3ccccc23)c1  inhibition of aggregation            -9.3
11          COc1ccccc1C(=O)NCCc1nc2ccccc2n1C  inhibition of aggregation            -5.2
